The measured values listed here are drawn from patent US9957271B2.

Listed here are molecules together with their documented Emax.
assay.system: UniProtKB Q96EB6
Sequence (Q96EB6 1-747): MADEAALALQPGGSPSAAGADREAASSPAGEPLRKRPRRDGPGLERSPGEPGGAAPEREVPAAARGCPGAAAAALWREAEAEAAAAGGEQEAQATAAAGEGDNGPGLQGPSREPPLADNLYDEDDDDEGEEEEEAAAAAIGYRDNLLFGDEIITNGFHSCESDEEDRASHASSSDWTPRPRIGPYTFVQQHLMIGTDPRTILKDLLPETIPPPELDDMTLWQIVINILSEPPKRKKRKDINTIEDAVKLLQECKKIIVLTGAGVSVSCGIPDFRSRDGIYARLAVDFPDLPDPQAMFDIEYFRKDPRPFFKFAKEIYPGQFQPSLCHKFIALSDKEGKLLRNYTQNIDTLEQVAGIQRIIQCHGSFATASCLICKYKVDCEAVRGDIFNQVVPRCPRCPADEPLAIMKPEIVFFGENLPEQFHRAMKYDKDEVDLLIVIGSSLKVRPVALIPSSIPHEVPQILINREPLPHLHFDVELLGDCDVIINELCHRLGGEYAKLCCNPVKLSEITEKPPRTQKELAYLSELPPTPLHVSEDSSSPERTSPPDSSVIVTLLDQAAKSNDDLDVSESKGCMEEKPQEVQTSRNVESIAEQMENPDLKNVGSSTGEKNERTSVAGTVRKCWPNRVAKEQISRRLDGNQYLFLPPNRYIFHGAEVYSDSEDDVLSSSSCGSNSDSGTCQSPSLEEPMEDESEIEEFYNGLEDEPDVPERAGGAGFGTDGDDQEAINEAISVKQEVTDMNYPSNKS
test.summary: TAMRA based mass spectrometry assay of SIRT1 activity
Assay type: biochemical
condition.notes: TAMRA peptide substrate; percent maximum fold activation; read-out: TAMRA % Fold Act

Query: Could you share which Emax value was measured for O=C(Nc1cccnc1)c1cnn2ccc(-c3ccccc3OC(F)(F)F)nc12 [Compound 530] ?
Reply: ≥ 350%

Query: Let us now turn to Cc1nn2ccc(-c3ccccc3C(F)(F)F)nc2c1C(=O)Nc1cccc(O)n1 [Compound 577]
Reply: < 350%

Query: Let us now turn to CC1(COc2cccc(NC(=O)c3cnc4ccc(-c5ccccc5OC(F)(F)F)nn34)n2)COC1 [Compound 400]
Reply: ≥ 350%

Query: Let us now turn to Cc1nc(NC(=O)c2cnc3c(C)cc(-c4ccccc4C(F)(F)F)nn23)sc1C [Compound 588]
Reply: < 350%

Query: Let us now turn to O=C(Nc1cccc(O)n1)c1cnn2ccc(-c3ccccc3OC(F)(F)F)nc12 [Compound 580]
Reply: ≥ 350%

Query: Let us now turn to Cc1cc(NC(=O)c2cnc3ccc(-c4cccc(OCC(O)CO)c4)nn23)cc(C)n1 (centres unmarked) [Compound 418]
Reply: < 350%
